Known growth inhibition of a selection of molecules
- experiment_summary: NCI Yeast Anticancer Drug Screen. Data for the sgs1 mgt1 strain (AID 161);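 note: 0% = growth of cultures given vehicle only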
- condition_details: S. cerevisiae sgs1 mgt1 strain, at 50.0 µM, stronger effect = higher value
About 79,000 compounds went through this panel and 15% of them were active in at least one assay; those are over-represented in the sample as a whole.
measured_property: growth inhibition (%)

# molecule, measured_property, measurement_units, measured_result
rows = [
    ("CC(Br)([N+](=O)[O-])[N+](=O)[O-]", "growth inhibition", "%", 13.9),
    ("Cc1nc2ccccc2[se]1", "growth inhibition", "%", -3.5),
    ("CN(C)C(=O)c1cc(N(CCCl)CCCl)c([N+](=O)[O-])cc1[N+](=O)[O-]", "growth inhibition", "%", -3.35),
    ("COc1ccc2c3c1OC1C(Oc4nnnn4-c4ccccc4)C=CC4C(C2)N(C)CCC341 (stereo not drawn)", "growth inhibition", "%", 13.5),
    ("CC(=O)c1ccccc1N=Nc1ccc(N(CCCl)CCCl)cc1", "growth inhibition", "%", 0.15),
    ("O=[As]c1ccc(C(=O)O)cc1 (stereo not drawn)", "growth inhibition", "%", 0.2),
    ("NCCC1CCc2[nH]c3ccccc3c2C1 (stereo not drawn)", "growth inhibition", "%", -0.5),
    ("CCOC(=O)C(Br)C(C)C (stereo not drawn)", "growth inhibition", "%", 16.1),
    ("CCc1ccc(CCN2CCCCC2)nc1", "growth inhibition", "%", -21.4),
    ("CC[CH2][Pb]([CH2]CC)([CH2]CC)[NH]S(=O)(=O)c1ccc(C)cc1", "growth inhibition", "%", 99.6),
    ("O=[N+]([O-])c1ccccc1-c1ccccc1", "growth inhibition", "%", 7.05),
    ("CCC[CH2][Sn]1([CH2]CCC)[O]CCN2CCN(CC[O]1)CC2", "growth inhibition", "%", 83.2),
    ("CC(C)=CCN1CCC2(C)c3cc(O)ccc3CCC2C1 (stereo not drawn)", "growth inhibition", "%", -0.8),
    ("CCOC(=O)C(Cl)Cl", "growth inhibition", "%", -5.25),
    ("C1=C[N-]c2c3c(ccc2=C1)=CC=C[N-]3.C1=C[N-]c2c3c(ccc2=C1)=CC=C[N-]3.[Cl][Ru][Cl]", "growth inhibition", "%", 49),
    ("O=[N+]([O-])/C=C/c1ccc(Cl)cc1[N+](=O)[O-]", "growth inhibition", "%", 99.5),
    ("C/C=C(\\C)C(=O)OC1CC(C)(C)CC2C3=CCC4C5(C)CCC(=O)C(C)(C)C5CCC4(C)C3(C)CCC12C(=O)O (stereo not drawn) (tested in a mixture with another compound)", "growth inhibition", "%", 89.2),
    ("CN1CCN(c2ccc3nc(-c4ccc5nc(-c6ccc(N(C)CCCl)cc6)[nH]c5c4)[nH]c3c2)CC1", "growth inhibition", "%", 98.8),
    ("c1ccc(C2=NC(c3ccccc3)N3CC23c2ccccc2)cc1 (stereo not drawn)", "growth inhibition", "%", 5.05),
    ("COC(=O)C[CH2][Sn]([CH2]CC(=O)OC)([c]1ccccc1)[c]1ccccc1", "growth inhibition", "%", -6.7),
    ("[NH-]C(CO)C(=O)O.[NH-]C(CO)C(=O)O.[Pd+2] (stereo not drawn)", "growth inhibition", "%", -6.15),
    ("S=C=Nc1ccccn1", "growth inhibition", "%", 22.1),
    ("ClCCN(CCCl)c1ccc(C2=Nc3cccc4cccc(c34)N2)cc1", "growth inhibition", "%", 6.75),
]

* * *

# key: entry, value: growth inhibition
- experiment_summary: NCI Yeast Anticancer Drug Screen. Data for the cln2 rad14 strain (AID 165);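 note: 0% = growth equal to vehicle treated cultures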
- condition_details: S. cerevisiae cln2 rad14 strain, at 50.0 µM, stronger effect = higher value
- Procedure: Growth inhibition of yeast strains with defined genetic alterations is measured as a screen for potential anti-cancer activity. Selected strains with alterations in DNA damage repair or cell cycle control were exposed to compounds and growth inhibition was measured relative to vehicle treated controls. The strain used in this assay is cln2 rad14
This is part of a sample that, as a whole, favours compounds with a hit. Of some 79,000 tested, about 15% had one in any assay.
measured_property: growth inhibition (%)

# compound, measured_property, measured_result
data = [
    ("O=S(=O)(c1ccccc1)N1C2CCCC21 (configuration not stated)", "growth inhibition", -2.75),
    ("CCOC(=O)N=C=O", "growth inhibition", 11.9),
    ("O=c1[nH]cc(CCl)c(=O)[nH]1", "growth inhibition", 25.9),
    ("O=S(O)(O)=S.[Co+3].[NH-]CC[NH-].[NH-]CC[NH-].[NH2-].[NH2-]", "growth inhibition", -19.4),
    ("CC(=O)[O][Sn]([CH3])([CH3])[c]1ccccc1", "growth inhibition", 74.9),
    ("COc1cccc(/C=N/[N-]C(=O)c2ccncc2)c1[O-].[Ni+2].[OH3+]", "growth inhibition", 18.1),
    ("c1ccc(C[n+]2ccc(-c3ccccc3)cc2)cc1", "growth inhibition", -7.25),
    ("S=c1[nH]c2ccccc2[nH]1.[Zn+2]", "growth inhibition", 10.2),
    ("O=C(O)C(=O)O.[Ru].c1cnc2c(c1)ccc1cccnc12.c1cnc2c(c1)ccc1cccnc12", "growth inhibition", 5.45),
    ("c1ccc2c(c1)sc1sc3ccccc3[n+]12", "growth inhibition", 3),
    ("CCc1c[c]([Hg][Cl])c(CC)c(CC)c1CC", "growth inhibition", 23.7),
    ("O=[N+]([O-])C(CO)CCC(CO)[N+](=O)[O-] (configuration not stated)", "growth inhibition", -18.8),
    ("CN(C)P(=O)(N(C)C)N1CCCCCC1", "growth inhibition", -18.4),
    ("CC1(C)N=C(N)N=C(N)N1c1ccc(Cl)c(CCCCc2ccc(S(=O)(=O)F)cc2)c1", "growth inhibition", 99.4),
    ("Oc1c(Cl)c(Cl)cc(Cl)c1Cl", "growth inhibition", 79.8),
    ("CC1(C)OP(=O)(O)C=C1[Se]c1ccccc1", "growth inhibition", 4.95),
    ("O=C(O)CC(S)C(=O)O (configuration not stated)", "growth inhibition", -38.3),
    ("C/C=C(\\CC)C1(C(C)C)C(=O)NC(=O)NC1=O", "growth inhibition", -33.9),
    ("O=[As](O)(c1cccc(Cl)c1)C1CCCCC1O (configuration not stated)", "growth inhibition", -1.95),
    ("CCOC(=O)NP(=O)(NNc1ccccc1)NNc1ccccc1", "growth inhibition", 98.2),
    ("O=C1c2c(ccc3ccccc23)CN2CCCCC12 (configuration not stated)", "growth inhibition", 14),
    ("[Cl][Pt][Cl].c1ccc([AsH](CC[AsH](c2ccccc2)c2ccccc2)c2ccccc2)cc1", "growth inhibition", 98.6),
    ("S=C=[N][Sn]([N]=C=S)([c]1ccccc1)[c]1ccccc1.c1ccc2nc(-c3ccc4ccccc4n3)ccc2c1", "growth inhibition", 90.8),
    ("[C-]#[O+].[C-]#[O+].[Mo].c1ccc([PH+](CC[PH+](c2ccccc2)c2ccccc2)c2ccccc2)cc1.c1ccc([PH+](CC[PH+](c2ccccc2)c2ccccc2)c2ccccc2)cc1", "growth inhibition", 2.55),
    ("Cc1cc([N+](=O)[O-])c2ccccc2[n+]1[O-]", "growth inhibition", 58.4),
    ("O=P1(O)NP(=O)(O)NP(=O)(O)NP(=O)(O)N1", "growth inhibition", -5.45),
    ("Nc1nc(N)n2c(N)nnc2n1", "growth inhibition", 1.5),
    ("CCCCCCCCCCCCCCCCCC[N+](C)(C)C (tested in a mixture with another compound)", "growth inhibition", 13.2),
    ("CCCCC(CC)C(=O)O.[Sn] (configuration not stated)", "growth inhibition", -10.4),
    ("CN(C=O)NC(=O)N(CCCl)N=O", "growth inhibition", 11.2),
    ("N#Cc1ccncc1", "growth inhibition", -3.75),
    ("CC1=CC(C)C/C=C/C2C3OC3(C)C(C)C3C(Cc4c[nH]c5ccccc45)NC(=O)C23C(=O)C=CC(=O)C1O (configuration not stated)", "growth inhibition", 91),
    ("[Cl][Hg][c]1ccc(Cl)s1", "growth inhibition", 99),
    ("CCOC(=O)C[CH2][Sn]([Cl])([Cl])[Cl]", "growth inhibition", 12.3),
    ("CCN(CCCl)c1ccc(NC(=O)c2cc(C(=O)NCCN(C)C)cc(C(=O)Nc3ccc(N(CC)CCCl)cc3)c2)cc1", "growth inhibition", 2.95),
    ("COc1ccc2c(c1)CCC(N1CCCC(=O)C1)C2 (configuration not stated)", "growth inhibition", 17.4),
    ("CN(C)P(=S)(N(C)C)N1CCOCC1", "growth inhibition", -16.8),
    ("CCCN(CCC)C(=O)CCl", "growth inhibition", 3.3),
    ("CCN1C(=O)C(=Cc2ccc(-c3ccccc3)cc2)C(=O)N(CC)C1=S", "growth inhibition", 16.9),
    ("CN(C)CCc1ccccc1", "growth inhibition", 20.8),
    ("COc1ccc2n[se]nc2c1", "growth inhibition", 11.6),
    ("COC(=O)C1=CO[C@@H](C)[C@@H]2CN3CCc4c([nH]c5cc(OC)ccc45)[C@H]3C[C@H]12", "growth inhibition", -30.1),
    ("O=[N+]([O-])c1cccc2c([N+](=O)[O-])cccc12", "growth inhibition", -4.85),
    ("CC(C)OP(=O)(CP(=O)(OC(C)C)OC(C)C)OC(C)C.[CH3][Sn]([Br])([Br])[Br]", "growth inhibition", 6.7),
    ("C=C1CCC2CC1C2(C)C (configuration not stated) (tested in a mixture with another compound)", "growth inhibition", -2.7),
    ("CCCCCOP(=O)(OCCCCC)C(=O)Nc1ccc([N+](=O)[O-])cc1", "growth inhibition", -3.2),
    ("COC(=O)c1cccc(S(=O)(=O)F)c1", "growth inhibition", -13.4),
]
